# study target: UniProtKB P37288
# measurement protocol: Cellular in vitro assay for determining vasopressin receptor activity, V1a receptor cell line (CHO, aequorin luminescence)
# assay conditions: CHO cell line transfected with human V1a receptor; [Arg]-vasopressin at EC50 concentration; read-out: IC50 hV1a
endpoint label: IC50 (nM)
Unit nM implied. Number only.

Param item = O=C(Nc1ncccc1-n1cnc(Cn2nc(-c3ccc(Cl)cc3)n(C[C@H](O)C(F)(F)F)c2=O)n1)[C@@H]1C[C@@H]1F (racemic) [Example 76] ; retrieve measured IC50.
6.45

Param item = NC(=O)[C@H]1CC(F)(F)CN1C(=O)c1ncccc1-n1cnc(Cn2nc(-c3ccc(Cl)cc3)n(C[C@@H](O)C(F)(F)F)c2=O)n1 [Example 486] ; retrieve measured IC50.
110

---

# study target: human V2 receptor (Homo sapiens, UniProt P30518)
# Construct: expressed in transfected cells; host or cells: CHO K1 (ATCC) expressing firefly luciferase under a CRE-responsive promoter
# Sequence (P30518 whole entry): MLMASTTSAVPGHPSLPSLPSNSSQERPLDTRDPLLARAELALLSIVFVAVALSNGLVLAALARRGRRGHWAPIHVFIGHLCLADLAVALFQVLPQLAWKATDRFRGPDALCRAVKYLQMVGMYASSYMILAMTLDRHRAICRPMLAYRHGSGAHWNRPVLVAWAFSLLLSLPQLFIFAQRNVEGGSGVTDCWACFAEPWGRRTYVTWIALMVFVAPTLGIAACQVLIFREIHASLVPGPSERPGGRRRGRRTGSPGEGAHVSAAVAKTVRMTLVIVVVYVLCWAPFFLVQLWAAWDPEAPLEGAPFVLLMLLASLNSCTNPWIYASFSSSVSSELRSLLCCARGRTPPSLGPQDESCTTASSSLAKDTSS
# measurement protocol: Cellular in vitro assay for determining vasopressin receptor activity, V2 receptor cell line (CHO, CRE-luciferase)
# Type: cell-based
# assay conditions: CHO cell line transfected with human V2 receptor; [Arg8]-vasopressin at EC50 concentration, 3 hours; read-out: IC50 hV2
Entries and their IC50 values follow.
Unit nM implied. Number only.

Some entries whose results are on file:
O=C(NCc1ccc(F)cc1)c1ccccc1-n1cnc(Cn2nc(-c3ccc(Cl)cc3)n(C[C@H](O)C(F)(F)F)c2=O)n1 [Example 235] = 355
O=C(Nc1cccnc1-n1cnc(Cn2nc(-c3ccc(Cl)cc3)n(C[C@H](O)C(F)(F)F)c2=O)n1)C1CS(=O)(=O)C1 [Example 58] = 1140
O=C(c1cccc(Cl)c1-n1cnc(Cn2nc(-c3ccc(Cl)cc3)n(C[C@H](O)C(F)(F)F)c2=O)n1)N1CCS(=O)(=O)CC1 [Example 385] = 9550

Param item = O=C(c1cccc(Cl)c1-n1cnc(Cn2nc(-c3ccc(Cl)cc3)n(C[C@H](O)C(F)(F)F)c2=O)n1)N1CCC(O)(C(F)(F)F)C1 (mixture of isomers) [Example 379] ; retrieve measured IC50.
845

Param item = CC1(C)CN(C(=O)c2ccccc2-n2cnc(Cn3nc(-c4ccc(Cl)cc4)n(C[C@H](O)C(F)(F)F)c3=O)n2)CCN1 [Example 181] ; retrieve measured IC50.
18700

Param item = O=C(NCc1cccc(F)c1)c1ccccc1-n1cnc(Cn2nc(-c3ccc(Cl)cc3)n(C[C@H](O)C(F)(F)F)c2=O)n1 [Example 236] ; retrieve measured IC50.
340

Param item = O=C1NCC2(CN(C(=O)c3ccccc3-n3cnc(Cn4nc(-c5ccc(Cl)cc5)n(C[C@H](O)C(F)(F)F)c4=O)n3)C2)N1 [Example 190] ; retrieve measured IC50.
7050

Param item = CC1(C(=O)Nc2ncccc2-n2cnc(Cn3nc(-c4ccc(Cl)cc4)n(C[C@H](O)C(F)(F)F)c3=O)n2)CCCCC1 [Example 113] ; retrieve measured IC50.
835

Param item = O=C(Nc1ncccc1-n1cnc(Cn2nc(-c3ccc(Cl)cc3)n(C[C@H](O)C(F)(F)F)c2=O)n1)c1ccccc1F [Example 116] ; retrieve measured IC50.
1150

---

# study target: human V2 receptor (Homo sapiens, UniProt P30518)
# Construct: expressed in transfected cells; host or cells: CHO K1 (ATCC) expressing firefly luciferase under a CRE-responsive promoter
# measurement protocol: Cellular in vitro assay for determining vasopressin receptor activity, V2 receptor cell line (CHO, CRE-luciferase)
# Type: cell-based
# assay conditions: CHO cell line transfected with human V2 receptor; [Arg8]-vasopressin at EC50 concentration, 3 hours; read-out: IC50 hV2
endpoint label: IC50
I'd appreciate it if you wrote the number followed by its unit.

O=C(c1ccccc1-n1cnc(Cn2nc(-c3ccc(Cl)cc3)n(C[C@H](O)C(F)(F)F)c2=O)n1)N1C[C@@H]2C[C@H]1CO2 = 880 nM
O=C(CC(F)(F)F)Nc1cccnc1-n1cnc(Cn2nc(-c3ccc(Cl)cc3)n(C[C@H](O)C(F)(F)F)c2=O)n1 = 578 nM
O=C(Nc1ccncc1-n1cnc(Cn2nc(-c3ccc(Cl)cc3)n(C[C@H](O)C(F)(F)F)c2=O)n1)[C@@H]1C[C@@H]1F (single isomer, unassigned) [Example 35] = 553 nM
O=C(Nc1cccnc1-n1cnc(Cn2nc(-c3ccc(Cl)cc3)n(C[C@H](O)C(F)(F)F)c2=O)n1)C(F)(F)F = 232 nM
CN(C)C(=O)c1ccccc1-n1cnc(Cn2nc(-c3ccc(Cl)cc3)n(C[C@H](O)C(F)(F)F)c2=O)n1 = 1260 nM

Let us move to another entry and its IC50.
Param item = CC(C)(O)C(=O)Nc1ncccc1-n1cnc(Cn2nc(-c3ccc(Cl)cc3)n(C[C@H](O)C(F)(F)F)c2=O)n1 ; retrieve measured IC50.
1010 nM

---

# study target: UniProt P37288
# measurement protocol: Cellular in vitro assay for determining vasopressin receptor activity, V1a receptor cell line (CHO, aequorin luminescence)
# assay conditions: CHO cell line transfected with human V1a receptor; [Arg]-vasopressin at EC50 concentration; read-out: IC50 hV1a
Entries and their IC50 values follow.
Unit nM implied. Number only.

O=C(Nc1ncccc1-n1cnc(Cn2nc(-c3ccc(Cl)cc3)n(C[C@H](O)C(F)(F)F)c2=O)n1)C1CCCCC1 = 52.5

Notebook: pull reported IC50 for UniProt P37288, entry CC(C)(O)CNc1ncccc1-n1cnc(Cn2nc(-c3ccc(Cl)cc3)n(C[C@H](O)C(F)(F)F)c2=O)n1
76.5

Notebook: pull reported IC50 for UniProt P37288, entry CC1(NC(=O)c2ccncc2-n2nc(Cn3nc(-c4ccc(Cl)cc4)n(C[C@H](O)C(F)(F)F)c3=O)nc2C(=O)N2CCS(=O)(=O)CC2)CC1
6250

Notebook: pull reported IC50 for UniProt P37288, entry O=C(c1ncccc1-n1cnc(Cn2nc(-c3ccc(Cl)cc3)n(C[C@H](O)C(F)(F)F)c2=O)n1)N1CCC[C@H]1C(F)(F)F
39.5

---

# study target: human V1a receptor (Homo sapiens, UniProt P37288)
# Sequence (P37288 whole entry): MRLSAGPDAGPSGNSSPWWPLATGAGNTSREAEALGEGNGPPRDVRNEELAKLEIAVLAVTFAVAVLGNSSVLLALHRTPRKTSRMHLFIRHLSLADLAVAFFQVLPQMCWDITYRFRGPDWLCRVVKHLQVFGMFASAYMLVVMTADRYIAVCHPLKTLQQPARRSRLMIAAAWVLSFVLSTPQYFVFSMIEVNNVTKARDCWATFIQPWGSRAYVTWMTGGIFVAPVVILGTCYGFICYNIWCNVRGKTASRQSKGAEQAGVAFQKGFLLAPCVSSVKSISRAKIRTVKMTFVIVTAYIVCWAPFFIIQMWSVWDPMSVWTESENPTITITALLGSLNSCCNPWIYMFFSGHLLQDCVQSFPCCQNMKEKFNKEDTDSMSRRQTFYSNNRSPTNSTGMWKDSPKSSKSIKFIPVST
# measurement protocol: Cellular in vitro assay for determining vasopressin receptor activity, V1a receptor cell line (CHO, aequorin luminescence)
# assay conditions: CHO cell line transfected with human V1a receptor; [Arg]-vasopressin at EC50 concentration; read-out: IC50 hV1a
Entries and their log10(IC50) values follow.
Values below are the log10 of the recorded IC50, with nM as the unit.

Some entries whose results are on file:
N#CCNC(=O)c1ccccc1-n1cnc(Cn2nc(-c3ccc(Cl)cc3)n(C[C@H](O)C(F)(F)F)c2=O)n1 = 0.88
CN(CC1CC1)C(=O)c1ncccc1-n1cnc(Cn2nc(-c3ccc(Cl)cc3)n(C[C@@H](O)C(F)(F)F)c2=O)n1 = 2.00
O=C(NCCN1CCNC1=O)c1ccccc1-n1cnc(Cn2nc(-c3ccc(Cl)cc3)n(C[C@H](O)C(F)(F)F)c2=O)n1 = 0.95
CC(C)(N)CNc1ncccc1-n1cnc(Cn2nc(-c3ccc(Cl)cc3)n(C[C@H](O)C(F)(F)F)c2=O)n1 = 2.28
O=C(Nc1cccnc1-n1cnc(Cn2nc(-c3ccc(Cl)cc3)n(C[C@H](O)C(F)(F)F)c2=O)n1)C1CC1(F)F (mixture of isomers) [Example 41] = 0.54
CC1(NC(=O)c2cccc(C(F)(F)F)c2-n2cnc(Cn3nc(-c4ccc(Cl)cc4)n(C[C@H](O)C(F)(F)F)c3=O)n2)CC1 = 1.65
O=C(Nc1ncccc1-n1cnc(Cn2nc(-c3ccc(Cl)cc3)n(C[C@H](O)C(F)(F)F)c2=O)n1)c1ccncc1 = 0.55
CCC(C)(O)C(=O)Nc1ncccc1-n1cnc(Cn2nc(-c3ccc(Cl)cc3)n(C[C@H](O)C(F)(F)F)c2=O)n1 (stereo partly shown) = 1.43

Param item = O=C1CN(C(=O)c2ccccc2-n2cnc(Cn3nc(-c4ccc(Cl)cc4)n(C[C@H](O)C(F)(F)F)c3=O)n2)CN1 ; retrieve measured log10(IC50).
1.44

Param item = O=C(NCc1cc(F)cc(F)c1)c1ccccc1-n1cnc(Cn2nc(-c3ccc(Cl)cc3)n(C[C@H](O)C(F)(F)F)c2=O)n1 ; retrieve measured log10(IC50).
1.35

Param item = O=C(Nc1cccnc1-n1cnc(Cn2nc(-c3ccc(Cl)cc3)n(C[C@H](O)C(F)(F)F)c2=O)n1)C1CC1F (single isomer, unassigned) [Example 55] ; retrieve measured log10(IC50).
0.56

Param item = NC(CNC(=O)c1cccc(Cl)c1-n1cnc(Cn2nc(-c3ccc(Cl)cc3)n(C[C@H](O)C(F)(F)F)c2=O)n1)C(F)(F)F (mixture of isomers) ; retrieve measured log10(IC50).
1.84

Param item = O=C(NC1CC1)c1cccnc1-n1cnc(Cn2nc(-c3ccc(Cl)cc3)n(C[C@H](O)C(F)(F)F)c2=O)n1 ; retrieve measured log10(IC50).
0.86
